Record form. Attribute: Emax. Fill in for each entry.
# TARGET DESC: Mu-type opioid receptor (Homo sapiens, UniProt P35372)
# Sequence (P35372 whole entry): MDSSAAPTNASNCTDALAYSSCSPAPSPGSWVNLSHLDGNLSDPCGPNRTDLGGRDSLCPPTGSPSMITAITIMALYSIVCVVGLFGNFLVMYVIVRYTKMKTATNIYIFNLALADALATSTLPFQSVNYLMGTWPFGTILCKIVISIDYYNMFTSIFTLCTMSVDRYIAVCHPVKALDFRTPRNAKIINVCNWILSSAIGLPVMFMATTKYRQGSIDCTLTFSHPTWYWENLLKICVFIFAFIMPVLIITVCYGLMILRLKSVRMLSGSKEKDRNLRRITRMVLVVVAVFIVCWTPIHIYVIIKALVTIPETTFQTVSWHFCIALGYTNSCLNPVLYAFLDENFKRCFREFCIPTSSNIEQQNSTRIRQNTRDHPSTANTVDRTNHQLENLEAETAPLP
# TEST SUMMARY: Agonist activity at human mu opioid receptor expressed in CHO cell membrane by [35S]GTPgammaS binding assay
# Format: functional, cell membranes
Kindly provide the numeric value in % only, without the unit symbol.

Q: # get_value(readout= Emax, system= Mu-type opioid receptor (Homo sapiens, UniProt P35372)) for `C[C@H]1C2Cc3ccc(C(=O)NCCc4cccc(Br)c4)cc3[C@@]1(C)CCN2CC1CC1`
Result: 24

Q: Provide the documented Emax with Mu-type opioid receptor (Homo sapiens, UniProt P35372) as the system for `C[C@H]1C2Cc3ccc(C(=O)NCCc4cccc(-c5ccccc5)c4)cc3[C@@]1(C)CCN2CC1CC1`
Result: 41

Q: Field: Emax (Mu-type opioid receptor (Homo sapiens, UniProt P35372)). Entry: `COc1ccc(-c2ccc(CCNC(=O)c3ccc4c(c3)[C@@]3(C)CCN(CC5CC5)C(C4)[C@@H]3C)cc2)cc1`
Result: 27

Q: What is its Emax for Mu-type opioid receptor (Homo sapiens, UniProt P35372)? Entry: `C[C@H]1C2Cc3ccc(C(=O)NCCc4ccccc4-c4ccccc4)cc3[C@@]1(C)CCN2CC1CC1`
Result: 36

Q: Requested read-out Emax, target or system Mu-type opioid receptor (Homo sapiens, UniProt P35372), entry `C[C@H]1C2Cc3ccc(C(=O)NCCCc4ccc5ccccc5c4)cc3[C@@]1(C)CCN2CC1CC1`
Result: 31

Q: Give recorded Emax with Mu-type opioid receptor (Homo sapiens, UniProt P35372) for the following compound: `C[C@H]1C2Cc3ccc(C(=O)NCCc4ccc(-c5ccc(Cl)cc5)cc4)cc3[C@@]1(C)CCN2CC1CC1`
Result: 31

Q: Item `C[C@H]1C2Cc3ccc(C(=O)NCCc4ccc(Br)cc4)cc3[C@@]1(C)CCN2CC1CC1` with Mu-type opioid receptor (Homo sapiens, UniProt P35372) - Emax?
Result: 73

---

Provide the reported pKi of each item.
Note on units: pKi is unitless, being -log10 of a concentration expressed in mol/L.

Q: Notebook entry, Kappa-type opioid receptor (Homo sapiens) assay: pKi of `C[C@H]1C2Cc3ccc(C(=O)NCCc4cccc5ccccc45)cc3[C@@]1(C)CCN2CC1CC1` = ?
Result: 8.62

Q: Record lookup: for Kappa-type opioid receptor (Homo sapiens), what pKi belongs to `C[C@H]1[C@H]2Cc3ccc(O)cc3[C@@]1(C)CCN2CC1CC1` ?
Result: 10.15

Q: Missing value: pKi, Kappa-type opioid receptor (Homo sapiens), entry `C[C@H]1C2Cc3ccc(C(=O)NCCc4ccc(Br)cc4)cc3[C@@]1(C)CCN2CC1CC1` . Fill in?
Result: 9.42

Q: Could you share what pKi was measured for `C[C@H]1C2Cc3ccc(C(=O)NCCc4ccc5ccccc5c4)cc3[C@@]1(C)CCN2CC1CC1` , tested on Kappa-type opioid receptor (Homo sapiens)?
Result: 9.70

Q: Give Kappa-type opioid receptor (Homo sapiens) pKi for `C[C@H]1C2Cc3ccc(C(=O)NCCc4ccccc4-c4ccccc4)cc3[C@@]1(C)CCN2CC1CC1`
Result: 8.62

Q: Entry `C[C@H]1C2Cc3ccc(C(=O)NCCc4ccccc4Br)cc3[C@@]1(C)CCN2CC1CC1` , system Kappa-type opioid receptor (Homo sapiens): what pKi was measured?
Result: 7.72

Q: For the record `C[C@H]1C2Cc3ccc(C(=O)NCc4cccc5ccccc45)cc3[C@@]1(C)CCN2CC1CC1` , what value of pKi is listed for Kappa-type opioid receptor (Homo sapiens)?
Result: 7.74

Q: Recorded pKi for `C[C@H]1C2Cc3ccc(C(=O)NCc4ccc5ccccc5c4)cc3[C@@]1(C)CCN2CC1CC1` with Kappa-type opioid receptor (Homo sapiens), please?
Result: 7.72

Q: Form: Entry = `C[C@H]1C2Cc3ccc(C(=O)NCCCc4ccc5ccccc5c4)cc3[C@@]1(C)CCN2CC1CC1` | System = Kappa-type opioid receptor (Homo sapiens) | pKi = ____
Result: 9.74
